target: EGF (Homo sapiens, UniProt P01133 P01133:971-1023); assay: filter; specificity control; random RNA 2000 nM; conditions: tags: Upstate Biotechnology; label: 32P; pseudoknot (predicted)
Sequence (P01133 971-1023, one chain of several): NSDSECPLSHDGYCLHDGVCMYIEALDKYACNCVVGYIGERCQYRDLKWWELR
outcome measure: pKd
Scale note: pKd = -log10(concentration in M).

Quick note, pKd for GGGAGGACGAUGCGGUGGUCUCCCAAUUCUAAACUUUCUCCAUCGUAUC (ssRNA, 2'-F pyrimidines) [14F3'T] landed at 6.59

// provenance: patent US20030180744
